Reported selectivity for ERRβ vs ERRγ values follow for various compounds
# ASSAYED_TARGET: ERRβ (Homo sapiens, UniProt O95718)
# Sequence (O95718 208-432 limits assumed, species assumed): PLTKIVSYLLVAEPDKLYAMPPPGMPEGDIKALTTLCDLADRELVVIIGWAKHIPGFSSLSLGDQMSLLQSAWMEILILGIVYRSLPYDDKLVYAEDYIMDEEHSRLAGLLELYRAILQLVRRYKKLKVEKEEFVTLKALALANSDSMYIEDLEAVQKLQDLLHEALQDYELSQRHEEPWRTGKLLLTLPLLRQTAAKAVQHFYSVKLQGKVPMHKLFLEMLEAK
# PROTOCOL_TEXT: FRET-based peptide recruitment counterscreen
# Format: biochemical
# TEST_SETTINGS: ERRγ vs ERRβ EC50

Study these solved cases before continuing.
>  <COMPOUND>
Cc1cc(O)ccc1C(=O)NCCc1ccc(C(C)(C)C)cc1 [SR20011]

>  <MEASURED_PARAMETER>
selectivity for ERRβ vs ERRγ

>  <EXPERIMENTAL_RESULT>
30-40 fold

$$$$
>  <COMPOUND>
CC(C)(C)c1ccc(CCNC(=O)c2ccc(O)cc2Cl)cc1 [SR20012]

>  <MEASURED_PARAMETER>
selectivity for ERRβ vs ERRγ

>  <EXPERIMENTAL_RESULT>
30-40 fold

$$$$
>  <COMPOUND>
CC(C)(C)c1ccc(CCNC(=O)c2ccc(O)cc2N)cc1 [SR20239]

>  <MEASURED_PARAMETER>
selectivity for ERRβ vs ERRγ

>  <EXPERIMENTAL_RESULT>
7-8 fold

$$$$

In: Need selectivity for ERRβ vs ERRγ of CC(C)(C)c1ccc(CCNC(=O)c2ccc(O)cc2)cc1 [SR19797] , thanks.
Out: 7-8 fold

* * *

# ASSAYED_TARGET: ERRβ (Homo sapiens, UniProt O95718)
# PROTOCOL_TEXT: FRET-based peptide recruitment counterscreen
MEASURED_PARAMETER: EC50 (µM)
Number in µM, nothing else.

In: Need EC50 of CC(C)c1ccc(/C=N/NC(=O)c2ccc(O)cc2)cc1 [GSK4716, reference compound] , thanks.
Out: 3

* * *

# ASSAYED_TARGET: ERRγ (Homo sapiens, UniProt P62508)
# Sequence (P62508 233-457 limits assumed): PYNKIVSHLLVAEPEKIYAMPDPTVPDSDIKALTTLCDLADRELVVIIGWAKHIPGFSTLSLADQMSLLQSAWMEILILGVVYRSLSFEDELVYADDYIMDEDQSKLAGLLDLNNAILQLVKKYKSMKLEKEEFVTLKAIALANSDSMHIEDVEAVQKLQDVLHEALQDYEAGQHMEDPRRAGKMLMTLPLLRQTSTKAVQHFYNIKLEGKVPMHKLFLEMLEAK
# PROTOCOL_TEXT: FRET-based peptide recruitment assay
# Format: biochemical
# TEST_SETTINGS: FRET assay

>  <COMPOUND>
CC(C)(C)c1ccc(CCNC(=O)c2ccc(O)cc2Cl)cc1 [SR20012]

>  <ERRγ activity in words>
equipotent to SR19797

$$$$
>  <COMPOUND>
Cc1cc(O)ccc1C(=O)NCCc1ccc(C(C)(C)C)cc1 [SR20011]

>  <ERRγ activity in words>
equipotent to SR19797

$$$$

* * *

# ASSAYED_TARGET: UniProt P11474
# Sequence (P11474 193-421 limits assumed, species assumed): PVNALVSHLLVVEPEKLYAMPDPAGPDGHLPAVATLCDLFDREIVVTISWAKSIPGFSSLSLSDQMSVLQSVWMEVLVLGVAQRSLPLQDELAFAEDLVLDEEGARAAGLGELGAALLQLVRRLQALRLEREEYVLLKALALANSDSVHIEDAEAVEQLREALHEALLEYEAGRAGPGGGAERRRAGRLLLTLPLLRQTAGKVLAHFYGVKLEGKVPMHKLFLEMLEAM
# PROTOCOL_TEXT: FRET-based peptide recruitment counterscreen
# Format: biochemical
# TEST_SETTINGS: data not shown
MEASURED_PARAMETER: activity vs ERRα

>  <COMPOUND>
CCN(CC(C)C)c1ccc(CCNC(=O)c2ccc(O)cc2)cc1

>  <activity vs ERRα>
no activity

$$$$
>  <COMPOUND>
CC(C)c1ccc(/C=N/NC(=O)c2ccc(O)cc2)cc1 [GSK4716, reference compound]

>  <activity vs ERRα>
no activity

$$$$
>  <COMPOUND>
CCN(CC)c1ccc(CCNC(=O)c2ccc(O)cc2)cc1

>  <activity vs ERRα>
no activity

$$$$
>  <COMPOUND>
CC(C)(C)c1ccc(CCNC(=O)c2ccc(O)cc2)cc1

>  <activity vs ERRα>
no activity

$$$$

In: Need activity vs ERRα of `CC(C)(C)c1ccc(CCNC(=O)Cc2ccc(O)cc2)cc1` , thanks.
Out: no activity
